For each of the compounds below, state its AC150.
# Test system: AMPK
# measurement_notes: AMPK activation effect (AMPK [pT172] ELISA) in MCF7 cells
# Type: cell-based, human
# assay_setup: concentration at which AMPK activation reached 150%, 24 hours
# Procedure: ELISA kit (Invitrogen, Catalog No. KH00651). MCF7 cells were cultured in a DMEM medium supplemented with 10% fatal bovine serum (commercially available from Gibco Life Technologies (US)). Thereafter, the cultured MCF7 cells were put into a 6-well plate with approximately 5×10^5 cells per well, and cultured in an incubator supplied with 5% CO2. Culture media were treated with the derivatives synthesized in the Examples at concentrations of 5, 10 and 50 uM, and then cultured for 24 hours. […]
Give bare numbers, in µM.

In [3]: df
Out[3]:
                              compound  recorded_result
0  Cc1ccc(NC(=N)NC(=N)N2CC=CCC2)cc1.Cl              4.9

Kindly give each listed record's AC150.
1. CC1CCCN(C(=N)NC(=N)Nc2ccc(F)cc2)C1.Cl (stereo not drawn)
2. Cl.N=C(NC(=N)N1CC=CC1)Nc1ccc(Cl)cc1

1. 1.6
2. 8.3
